protocol_conditions: in methanol, 293.15 K

compound_string	solubility (mole fraction)
CN(C)Cc1c[nH]c2ccccc12	0.0371

====

protocol_conditions: in n-butanol, 298.15 K

compound_string	solubility (mole fraction)
CN(C)Cc1c[nH]c2ccccc12	0.0512

====

protocol_conditions: in n-butanol, 283.15 K
measurement_kind: solubility (mole fraction)

compound_string	reported_value
CN(C)Cc1c[nH]c2ccccc12	0.0369

Provenance of the data: BigSolDB 2.1
